Entry source: patent US20190338002A1

Here, each record is paired with measured cAMP assay IC50, SK-N-MC cells data.
- system.under.test: T1, human beta CGRP (SEQ ID NO: 81) (human, not fully specified)
- T1 peptide: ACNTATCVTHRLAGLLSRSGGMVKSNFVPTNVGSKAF
- procedure.text: cell-based or functional assay

binder | cAMP assay IC50, SK-N-MC cells / nM
cysteine-free lipocalin mutein SEQ ID NO: 30 (designed binder, biotinylated by NHS chemistry for capture in SPR) QDSTSDLIPAPPLSKVPLQQNFQDNQFQGKWYVVGRAGNDVLREDKDPEKMEATIYELKEDKSYNVTDVGFVQKRYMYVTHTFVPGSQPGEFTLGNIESYPGVTSALVRVVSTDYNQHAMVFVKLVKQNRELFEITLYGRTKELTSELKENFIRFSKSLGLPENHIVFPVPIDQIDGSAWSHPQFEK | 1.32
lipocalin mutein SEQ ID NO: 27 (designed binder, biotinylated by NHS chemistry for capture in SPR) QDSTSDLIPAPPLSKVPLQQNFQDNQFHGKWYVVGWAGNTLLREDKDPIKMQAMIYELKEDKSYNVTWVYFADKKCNYHIETFVPGSQPGEFTLGTIKSYPGETPILVRVVSTNYNQHAMVFFKGVNQNREIFEIVLYGRTKELTNELKENFIRFSKSLGLPENHIVFPVPIDQCIDGSAWSHPQFEK | 0.12
cysteine-free lipocalin mutein SEQ ID NO: 32 (designed binder, biotinylated by NHS chemistry for capture in SPR) QDSTSDLIPAPPLSKVPLQQNFQDNQFQGKWYVVGWAGNTLLREDKDPIKMQAMIYELKEDKSYNVTWVYFADKKMNYHIETFVPGSQPGEFTLGTIKSYPGETPILVRVVSTNYNQHAMVFFKGVNQNREIFEIVLYGRTKELTNELKENFIRFSKSLGLPENHIVFPVPIDQYIDGSAWSHPQFEK | 0.26
